Origin of measurements: ChEMBL document CHEMBL1201862

Experiment: alpha-synuclein stem-loop luciferase translation blockers – H4 neuroglioma cells, luminescence, confirmation (AID 1988)
Assay type: functional, cell-based
Activity calls are given as the source filed them. Cut-off read from the data, not from the text of the source: actives have a measured EC50 and inactives only a lower limit.
Property Measured: EC50

Compound: CC/C(=N\CCc1c(C)[nH]c2ccccc12)C1=C(O)CC(c2ccccc2)CC1=O (stereo not given)
Property Measured: EC50
Recorded Value: > 120 µM (not active)
--
Compound: CCOc1ccc(C2=Nn3c(nnc3-c3ccccc3OC)SC2)cc1
Property Measured: EC50
Recorded Value: < 0.1 µM (active)
--
Compound: CCCCCCCCCCOC(=O)Cn1c(COc2ccc(Cl)cc2)[n+](C)c2ccccc21
Property Measured: EC50
Recorded Value: > 120 µM (not active)

Could you report EC50 for every entry in the following list?
1. N=C(N)N/N=C/c1ccc(N(c2ccccc2)c2ccccc2)cc1
2. CCCCCOC(=O)c1[nH]c2c(c1C)C(=O)CC(c1ccco1)C2 (stereo not given)

["10.4 µM (active)", "< 0.1 µM (active)"]
